Test system: HCC-2998 colon
Experiment: NCI-60 one-dose screen, 48 h (100 = growth as untreated, 0 = no growth, -100 = all killed)
Details: 10 µM unless noted
About 83,000 compounds went through this panel and 20% of them were active in at least one assay; those are over-represented in the sample as a whole.
metric: growth (%)
Entry rule: numbers only, all in %.

Determine from records and report growth for "Nc1nc(=S)ss1"
97

Determine from records and report growth for "Cc1nc(N)nc(SCc2ccccc2)c1Br"
117

Determine from records and report growth for "COc1cc(-c2nc3ccccc3s2)ccc1OCc1nc2n(n1)S(=O)(=O)c1ccccc1N2C"
109

Determine from records and report growth for "COc1ccc(C(=O)NC(=O)Nc2ccc3c(c2)NC(=O)/C3=C\c2[nH]c(C)c(C(=O)O)c2C)cc1"
97.7

Determine from records and report growth for "O=C(NCCNc1nccc(-c2c(-c3cccc(O)c3)nc3sccn23)n1)c1ccccc1"
97.8

Determine from records and report growth for "O=C(/C=C/c1ccccc1)Oc1ccc(/C=C/c2cc(OC(=O)/C=C/c3ccccc3)cc(OC(=O)/C=C/c3ccccc3)c2)cc1"
104

Determine from records and report growth for "CC(/C=C/C=C(\C)[C@H](O)[C@H](C)C(=O)O[C@H]1C[C@H](C)C=C2C=C[C@@]3(C)O[C@@H](O)CC(=O)[C@]3(C)[C@H]21)=C\C=C\C(=O)O"
7.5

Determine from records and report growth for "C#CC(=O)/C=C/CCCCCCC#CC(=O)CCC(=O)C#CCCCCCC/C=C/C(=O)C#C"
63.9

Determine from records and report growth for "Cc1ccc(=O)n(-c2ccc(Br)cc2F)c1"
106

Determine from records and report growth for "O=C(O)c1ccccc1C(=O)c1ccc(I)cc1"
102

Determine from records and report growth for "CCCCOc1nc2ccc(Cl)cc2cc1/C=C/C(=O)/C=C/c1ccc(OC)cc1"
92.7

Determine from records and report growth for "CCOc1cccc(Nc2nc(N)nc3[nH]c4ccc(O)cc4c23)c1"
89.8

Determine from records and report growth for "CC1(C)N=C(N)N=C(N)N1c1ccc(OCC(=O)Nc2ccccc2)c(Cl)c1"
29.5

Determine from records and report growth for "O=C(CSc1nnc(-c2ccccc2)o1)Nc1ccc(C(=O)/C=C/c2ccccc2)cc1"
46.5

Determine from records and report growth for "O=C(Cn1c2ccccc2c2ccncc21)N/N=C/c1c[nH]c2ccccc12"
87.5

Determine from records and report growth for "c1coc(CSc2ncnc3nc[nH]c23)c1"
107

Determine from records and report growth for N#CC1=C(N)Oc2c(ccc3ccccc23)C1c1cc(=O)oc2ccc(Cl)cc12 (centres undefined)
36.6

Determine from records and report growth for CN1C(=O)C2(NN=C(c3cccc4ccccc34)S2)c2ccccc21 (centres undefined)
51.7

Determine from records and report growth for O=C1CCC(c2c(O)cc(O)c3c(=O)c(O)c(-c4ccc(O)c(O)c4)oc23)N1 (centres undefined)
89.4

Determine from records and report growth for "CC(C)CNCC(=O)Nc1ccc(Cc2ccc(NC(=O)CNCC(C)C)cc2)cc1"
36.6

Determine from records and report growth for "CCc1c(C)c2cc(-n3c(-c4ccc(OC)cc4)csc3=N)c(O)c(C)c2oc1=O"
36.2

Determine from records and report growth for "COc1ccc(-c2ccc(NC(=O)Nc3ccc(Cl)c(C(F)(F)F)c3)c(C)n2)cc1"
69.2

Determine from records and report growth for "COc1ccc(/C=C/C(=O)c2ccc(-n3cc(CN4CCN(c5cc6c(cc5F)c(=O)c(C(=O)O)cn6C5CC5)CC4)nn3)cc2)cc1OC"
-39.7

Determine from records and report growth for CC(Cc1cccc(C(F)(F)F)c1)NCCOC(=O)c1ccccc1 (centres undefined)
109

Determine from records and report growth for "O=C(O)c1ccc(-n2cc(/C=N/Nc3ccccc3F)c(-c3ccc(O)cc3)n2)cc1"
86.4

Determine from records and report growth for "Cc1cc(Nc2ccc(Cl)c(Cl)c2)nc(N)n1"
113

Determine from records and report growth for COc1cc([C@@H]2c3cc4c(cc3C(OC3O[C@@H]5COC(C)O[C@H]5[C@H](O)[C@H]3O)C3COC(=O)[C@@H]32)OCO4)cc(OC)c1O (some centres undefined)
38.7

Determine from records and report growth for "NS(=O)(=O)c1ccc(-n2nc(-c3ccc(Cl)cc3)ccc2=O)cc1"
102

Determine from records and report growth for "Cc1cccc(Cc2cnc(NC(=O)CCc3ccc(C)o3)s2)c1"
23.7

Determine from records and report growth for "CC(=O)Nc1ccc([I+]c2ccc([N+](=O)[O-])cc2)cc1"
106

Determine from records and report growth for "Cc1ccc(-c2cc(-c3nnc(SCC(=O)c4ccccc4)o3)c3ccccc3n2)cc1"
99.6

Determine from records and report growth for "COc1cc(C(=O)N2CCN(C(=O)c3cc(OC)c(OCc4ccccc4)cc3N)CC2)c(N)cc1OCc1ccccc1"
102

Determine from records and report growth for "O=S(=O)(CCN1CCOCC1)Nc1cncc(-c2ccc3ncnc(Nc4ccc(F)c(Cl)c4)c3c2)c1"
74.4

Determine from records and report growth for "COc1cc2nc(C(=O)N3CCCCC3)cc(Nc3ccccc3)c2cc1OC"
105

Determine from records and report growth for "COc1ccccc1S(=O)(=O)Nc1ccc2c3c(cc(-c4ccoc4)nc13)C(=O)N2C"
74.7

Determine from records and report growth for COc1ccc(OCC(O)CN2CCN(c3ccc(Cl)cc3)CC2)cc1 (centres undefined)
-94.4

Determine from records and report growth for "COc1ccc2c(c1)C(=O)/C(=C/c1cccc(OCC(=O)c3ccccc3)c1)O2"
-71.2

Determine from records and report growth for "CN1CCN(Cn2nc(-c3cc(Cl)cc(Cl)c3Cl)n(/N=C/c3ccc(Cl)cc3)c2=S)CC1"
103

Determine from records and report growth for "Cc1ccc(/C=C2/C(=O)Nc3cc(Cl)c(-c4csc(N)n4)cc32)cc1"
91.4

Hey, just so you know, these numbers are from PubChem BioAssay (NCI).
